Biological target: SHP2-C SH2;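 note: peptide library displayed on the E. coli surface as eCPX fusions, selected cells deep-sequenced, score is each peptide's frequency after selection divided by its frequency in the input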
Assay: SH2 binding enrichment of the phosphorylated peptide, bacterial display (enrichment ratio); higher = better substrate or ligand; peptides without Tyr show the background
Catalogue of SH2 binding enrichment readings, one per entry.
Give the value as a plain number.

Example cases with answers are listed next.
{"input_sequence": "EGTATYAAAIL [JUP_Y644_V648I]", "SH2 binding enrichment": 0.429}
{"input_sequence": "SILAVYSKDIY [PANK2_Y400_N404I]", "SH2 binding enrichment": 0.903}
{"input_sequence": "AGNPAYRSFSN [IL4R_Y497]", "SH2 binding enrichment": 0.466}

Please fill in: SH2 binding enrichment reported for RTLTHYKSAVK [ASNS_Y555] = 0.83

Reported SH2 binding enrichment of AVVEPYNSLLT [TUBA1A_Y185_I188L] : 0.648

Recorded SH2 binding enrichment (sequence TLERHYKELQA [SPTBN2_Y834_E835K] ): 0.593

In plain terms, PQDSAYHSGIQ [FLG_Y3940_S3935P] has a documented SH2 binding enrichment of 0.613

Record KTGNIYRTEYG [MRPL3_Y265_M261T] , field SH2 binding enrichment: 0.91

The reported SH2 binding enrichment of the sequence IITDYYVDMKF [MPP4_Y567_V562I] was 0.803

Recorded result, HSGLAYTMERS [GLUD1_Y512] , SH2 binding enrichment: 0.733

GET /value?item= GLETSYIEDNC [PAH_Y24_Q20L] &field=SH2 binding enrichment returns 0.617

* * *

Target: Fes (UniProt P07332)
Sequence (P07332 whole entry, looked up): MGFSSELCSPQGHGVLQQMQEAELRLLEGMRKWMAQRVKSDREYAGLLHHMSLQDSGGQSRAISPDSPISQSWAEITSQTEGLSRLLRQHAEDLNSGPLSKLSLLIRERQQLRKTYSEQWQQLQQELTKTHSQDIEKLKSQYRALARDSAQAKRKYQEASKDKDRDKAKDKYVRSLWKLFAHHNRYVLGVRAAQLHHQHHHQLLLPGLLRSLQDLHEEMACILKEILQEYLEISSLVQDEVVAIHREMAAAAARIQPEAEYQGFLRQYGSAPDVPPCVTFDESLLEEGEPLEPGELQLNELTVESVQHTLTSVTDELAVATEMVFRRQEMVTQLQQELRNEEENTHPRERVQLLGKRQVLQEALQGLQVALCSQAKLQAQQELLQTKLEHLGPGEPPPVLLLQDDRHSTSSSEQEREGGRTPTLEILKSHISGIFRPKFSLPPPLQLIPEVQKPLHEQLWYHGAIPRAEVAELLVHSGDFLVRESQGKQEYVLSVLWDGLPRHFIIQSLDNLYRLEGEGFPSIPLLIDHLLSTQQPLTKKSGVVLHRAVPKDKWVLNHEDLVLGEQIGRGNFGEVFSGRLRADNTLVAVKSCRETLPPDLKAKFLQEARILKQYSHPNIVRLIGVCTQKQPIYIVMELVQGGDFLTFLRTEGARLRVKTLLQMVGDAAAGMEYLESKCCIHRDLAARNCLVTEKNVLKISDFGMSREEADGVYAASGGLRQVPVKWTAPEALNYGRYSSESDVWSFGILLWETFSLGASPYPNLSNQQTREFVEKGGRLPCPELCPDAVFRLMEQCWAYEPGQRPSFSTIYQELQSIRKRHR
Assay: phosphorylation enrichment, bacterial display (enrichment ratio); higher = better substrate or ligand; peptides without Tyr show the background
Decision: phosphorylation enrichment >= 1 yields 1, all other cases yield 0.

Would you please look over these solved cases?
{"input_sequence": "SAPDSYIRIGN [SLC38A4_Y27_G29R]", "tested_target": "Fes (UniProt P07332)", "answer_label": 0}
{"input_sequence": "CTTIPYNYMCN [TP53_Y234_H233P]", "tested_target": "Fes (UniProt P07332)", "answer_label": 0}
{"input_sequence": "AELVQYYMEHH [PTPN11_Y80]", "tested_target": "Fes (UniProt P07332)", "answer_label": 1}
{"input_sequence": "KDQGIYEDYVE [MYL6_Y86_T85I]", "tested_target": "Fes (UniProt P07332)", "answer_label": 1}
{"input_sequence": "QPGDIYHQTWA [GBA_Y244]", "tested_target": "Fes (UniProt P07332)", "answer_label": 0}
{"input_sequence": "GKGGSYSKAEW [HLA-E_Y341]", "tested_target": "Fes (UniProt P07332)", "answer_label": 0}

Dear colleague, could you confirm whether MEVGQYFFVKC [CYBB_Y324_I325F] has phosphorylation enrichment at or above 1?
1

Tell me whether phosphorylation enrichment is at least 1 here: FGMQLYQNFMH [GRB14_Y347_YF]
1

Is reported phosphorylation enrichment greater than or equal to 1 here: CTTIHYNYKCN [TP53_Y234_M237K]
0

Determine whether measured phosphorylation enrichment meets or exceeds 1 for ALAHKYDGGGG [HBB_Y146_H147D]
0

Evaluate DFCDLYGGEKF [PTPN11_Y66_Y63C_YF] : phosphorylation enrichment at minimum 1?
1

* * *

Target: Jak2 (UniProt O60674)
Sequence (O60674 whole entry, looked up): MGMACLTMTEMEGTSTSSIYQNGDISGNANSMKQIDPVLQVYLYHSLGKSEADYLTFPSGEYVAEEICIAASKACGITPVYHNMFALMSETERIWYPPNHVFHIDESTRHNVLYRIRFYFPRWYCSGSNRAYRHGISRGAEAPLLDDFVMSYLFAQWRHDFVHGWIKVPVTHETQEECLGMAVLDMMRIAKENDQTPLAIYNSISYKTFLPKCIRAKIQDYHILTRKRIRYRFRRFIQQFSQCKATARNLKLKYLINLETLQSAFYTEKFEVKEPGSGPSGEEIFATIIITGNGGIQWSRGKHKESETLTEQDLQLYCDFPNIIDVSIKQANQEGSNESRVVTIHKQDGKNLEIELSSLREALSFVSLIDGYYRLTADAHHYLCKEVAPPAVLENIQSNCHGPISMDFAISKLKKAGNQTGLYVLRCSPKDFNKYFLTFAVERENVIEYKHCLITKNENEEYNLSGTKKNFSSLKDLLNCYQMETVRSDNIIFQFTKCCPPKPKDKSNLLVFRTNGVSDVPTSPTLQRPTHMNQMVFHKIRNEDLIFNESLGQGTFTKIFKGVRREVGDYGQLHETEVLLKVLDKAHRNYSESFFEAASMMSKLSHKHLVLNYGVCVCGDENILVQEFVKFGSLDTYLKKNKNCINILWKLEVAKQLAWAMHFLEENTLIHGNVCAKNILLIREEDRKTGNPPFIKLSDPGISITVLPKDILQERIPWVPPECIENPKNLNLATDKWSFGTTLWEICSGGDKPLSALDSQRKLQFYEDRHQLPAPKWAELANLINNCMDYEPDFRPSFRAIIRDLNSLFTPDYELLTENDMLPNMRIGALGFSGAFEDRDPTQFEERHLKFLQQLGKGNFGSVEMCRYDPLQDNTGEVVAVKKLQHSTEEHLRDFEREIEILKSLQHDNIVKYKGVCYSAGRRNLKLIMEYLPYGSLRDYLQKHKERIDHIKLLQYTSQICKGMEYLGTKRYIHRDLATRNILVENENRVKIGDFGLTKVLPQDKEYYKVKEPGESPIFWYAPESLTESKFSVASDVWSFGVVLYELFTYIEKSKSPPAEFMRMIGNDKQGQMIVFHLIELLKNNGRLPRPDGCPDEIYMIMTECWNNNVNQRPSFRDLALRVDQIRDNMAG
Assay: phosphorylation enrichment, bacterial display (enrichment ratio); higher = better substrate or ligand; peptides without Tyr show the background
# reported phosphorylation enrichment; entries follow
Reply with the value as a number alone.

For orientation, consider the following solved cases.
{"input_sequence": "TEDAEYDVQSK [PTCHD3_Y335_P333A]", "tested_target": "Jak2 (UniProt O60674)", "phosphorylation enrichment": 1.07}
{"input_sequence": "EFQKKYSDADI [CKAP5_Y1860_K1857Q_YF]", "tested_target": "Jak2 (UniProt O60674)", "phosphorylation enrichment": 0.594}
{"input_sequence": "PQAVTYAEVKH [LILRB4_Y360_K362E]", "tested_target": "Jak2 (UniProt O60674)", "phosphorylation enrichment": 0.867}
{"input_sequence": "EDAHHYLCKEV [JAK2_Y382_A377E]", "tested_target": "Jak2 (UniProt O60674)", "phosphorylation enrichment": 0.632}
{"input_sequence": "PQDSAYHSGIQ [FLG_Y3940_S3935P]", "tested_target": "Jak2 (UniProt O60674)", "phosphorylation enrichment": 0.598}

Switching to the query record.
What the record says about SAPPSHEETVA [LITAF_Y23_Y23H] : phosphorylation enrichment is 0.817

* * *

phosphorylation enrichment values, listed per item
Test system: AncSZ
Test: phosphorylation enrichment, bacterial display (enrichment ratio); higher = better substrate or ligand; peptides without Tyr show the background
# respond with the number and nothing more

The examples below pair each entry with its known result.
{"input_sequence": "VSRGRYRPQEC [B4GALT4_Y113]", "assay_value": 0.754}
{"input_sequence": "FARNCYVAGQF [G6PD_Y107_S106C_YF]", "assay_value": 0.983}
{"input_sequence": "KEDPEYKKKFR [FAM161A_Y278_E273K]", "assay_value": 0.749}
{"input_sequence": "GGMTEYNLVVV [KRAS_Y4_K5N]", "assay_value": 1.21}
{"input_sequence": "SVVVPYEPPDV [TP53_Y220_E224D]", "assay_value": 0.984}

Consider now this further sequence.
The measured phosphorylation enrichment associated with LEDEVYAQKMK [TPM2_Y261] reads 2.79

* * *

System: c-Abl (mouse)
Experiment: phosphorylation enrichment, bacterial display (enrichment ratio); higher = better substrate or ligand; peptides without Tyr show the background
reported_metric: phosphorylation enrichment
Answer field: number only, no words.

Sample answers from the record:
{"input_sequence": "VVEVTYDDVPI [FLNB_Y1308]", "phosphorylation enrichment": 0.805}
{"input_sequence": "PINLFYLMDLS [ITGB2_Y131_D128N_YF]", "phosphorylation enrichment": 2.11}
{"input_sequence": "GLVFLYMEKNQ [PRELP_Y156]", "phosphorylation enrichment": 0.854}
{"input_sequence": "CTTIPYNYMCN [TP53_Y234_H233P]", "phosphorylation enrichment": 0.615}
{"input_sequence": "VNKIYHPDFIV [LIG3_Y768_Y768H]", "phosphorylation enrichment": 0.562}

According to the records, this sequence KDGNGYISAAE [CALM1_Y100] displays phosphorylation enrichment of 0.546

Sample VECQVYAEDPY [PCCA_Y401_R399Q] ; phosphorylation enrichment observed: 0.981

* * *

Biological target: EPHB1 (UniProt P54762)
Sequence (P54762 whole entry, looked up): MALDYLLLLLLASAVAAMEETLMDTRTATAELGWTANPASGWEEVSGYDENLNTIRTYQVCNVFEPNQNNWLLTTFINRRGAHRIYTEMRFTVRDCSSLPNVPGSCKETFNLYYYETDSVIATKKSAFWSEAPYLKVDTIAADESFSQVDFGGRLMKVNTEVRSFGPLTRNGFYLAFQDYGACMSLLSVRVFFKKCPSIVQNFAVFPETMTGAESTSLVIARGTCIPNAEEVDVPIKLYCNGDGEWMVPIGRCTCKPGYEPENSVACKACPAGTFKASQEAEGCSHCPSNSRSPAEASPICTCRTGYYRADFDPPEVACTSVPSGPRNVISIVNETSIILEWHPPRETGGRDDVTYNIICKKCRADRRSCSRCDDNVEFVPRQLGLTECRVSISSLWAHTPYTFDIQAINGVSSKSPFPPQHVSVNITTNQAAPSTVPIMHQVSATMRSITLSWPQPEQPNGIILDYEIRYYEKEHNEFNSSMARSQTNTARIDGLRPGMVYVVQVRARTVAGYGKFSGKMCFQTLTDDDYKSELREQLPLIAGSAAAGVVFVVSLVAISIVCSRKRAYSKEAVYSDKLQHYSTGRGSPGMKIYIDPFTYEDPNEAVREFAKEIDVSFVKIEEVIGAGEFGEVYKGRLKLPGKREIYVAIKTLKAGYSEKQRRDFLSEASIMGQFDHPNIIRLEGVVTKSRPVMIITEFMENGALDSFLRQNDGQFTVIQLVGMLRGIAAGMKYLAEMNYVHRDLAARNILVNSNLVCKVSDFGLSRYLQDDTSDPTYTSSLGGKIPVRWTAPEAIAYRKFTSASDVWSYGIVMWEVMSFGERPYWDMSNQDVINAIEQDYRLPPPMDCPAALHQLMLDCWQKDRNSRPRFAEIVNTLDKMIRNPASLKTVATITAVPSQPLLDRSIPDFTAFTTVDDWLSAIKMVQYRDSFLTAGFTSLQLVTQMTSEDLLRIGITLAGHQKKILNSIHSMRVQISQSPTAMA
Assay: phosphorylation enrichment, bacterial display (enrichment ratio); higher = better substrate or ligand; peptides without Tyr show the background
Lab note: compare phosphorylation enrichment against 0.6. Equal or greater, write yes (1). Smaller, write no (0).

Look over these answered cases.
{"input_sequence": "RGSQQYRALTV [TUBB8_Y281]", "tested_target": "EPHB1 (UniProt P54762)", "answer_label": "no (0)"}
{"input_sequence": "KKEGPYDVVVL [PARK7_Y67]", "tested_target": "EPHB1 (UniProt P54762)", "answer_label": "no (0)"}
{"input_sequence": "VDSLRYIFPKL [EIF2B3_Y92_A87V_YF]", "tested_target": "EPHB1 (UniProt P54762)", "answer_label": "no (0)"}
{"input_sequence": "GVLDIYGFEIL [MYO1A_Y382]", "tested_target": "EPHB1 (UniProt P54762)", "answer_label": "yes (1)"}
{"input_sequence": "LHSEAYLKFIE [PBRM1_Y1610_YF]", "tested_target": "EPHB1 (UniProt P54762)", "answer_label": "yes (1)"}

Exam item: decide whether the reported phosphorylation enrichment for CTTIHYNYTCN [TP53_Y234_M237T] is at least 0.6.
no (0)

Exam item: decide whether the reported phosphorylation enrichment for LRAGVYHEKDQ [DNM2_Y626_P627H] is at least 0.6.
yes (1)

* * *

Reported phosphorylation enrichment values for a set of sequences
Molecular target: Fes (UniProt P07332)
Experiment: phosphorylation enrichment, bacterial display (enrichment ratio); higher = better substrate or ligand; peptides without Tyr show the background

{"input_sequence": "VTRAKYFIRDE [GNAS_Y339]", "phosphorylation enrichment": 0.694}

// recorded phosphorylation enrichment for RGFRQDAFDGK [HLA-A_Y140_YF] : 0.633

For reference, reported phosphorylation enrichment for HSGLAYTMERS [GLUD1_Y512] stands at 1.26

# sequence IGMIIYFARKA [VCAM1_Y718] ; its phosphorylation enrichment = 0.957

Record TEALFYTDDPA [ADPRS_Y75_T79P_YF] . Reported phosphorylation enrichment: 1.82
